Tested on: Aspergillus fumigatus strain IFM4942
Assay: Minimum Inhibitory Concentration (MIC), agar plate dilution method
Assay type: cell-based
Conditions: Aspergillus fumigatus, IFM4942, 48 h, Sabouraud's dextrose agar, 30°C for 2 days, visual growth, read-out: MIC
measured-quantity: MIC

Reference set, count: 3
[Q] Can you share its MIC? I mean this molecule: CSCON=C(C(C)C)C1(C(O)(Cn2cncn2)c2ccc(F)cc2F)CC1 (centres unmarked)
[A] 12.5 µg/mL

[Q] Can you share its MIC? I mean this molecule: CCC(=NOCCBr)C1(C(O)(Cn2cncn2)c2ccc(F)cc2F)CC1 (centres unmarked)
[A] 3.13 µg/mL

[Q] Can you share its MIC? I mean this molecule: CCON=C(C(C)C)C1(C(O)(Cn2cncn2)c2ccc(F)cc2F)CC1 (centres unmarked)
[A] 12.5 µg/mL

***
[Q] Can you share its MIC? I mean this molecule: CCC(=NOC)C1(C(O)(Cn2cncn2)c2ccc(F)cc2F)CC1 (centres unmarked)
[A] 3.13 µg/mL

[Q] Can you share its MIC? I mean this molecule: CCCC(=NOCOC)C1(C(O)(Cn2cncn2)c2ccc(F)cc2F)CC1 (centres unmarked)
[A] 25 µg/mL

[Q] Can you share its MIC? I mean this molecule: CCCON=C(C(C)C)C1(C(O)(Cn2cncn2)c2ccc(F)cc2F)CC1 (centres unmarked)
[A] 25 µg/mL

[Q] Can you share its MIC? I mean this molecule: CCC(=NOCSC)C1(C(O)(Cn2cncn2)c2ccc(F)cc2F)CC1 (centres unmarked)
[A] 3.13 µg/mL

[Q] Can you share its MIC? I mean this molecule: CCCCON=C(CC)C1(C(O)(Cn2cncn2)c2ccc(F)cc2F)CC1 (centres unmarked)
[A] 6.25 µg/mL

* * *

System: Candida albicans strain IFM40009
Experiment: Treatment of infection, protocol 2: mice infected with Candida albicans, oral treatment, survival
Format: in vivo
Details: ICR male mice, i.v. infection 1 × 10⁶ cells, oral once after an hour of infection, survival at 7th day, Litchfield-Wilcoxon
measured-quantity: ED50 (mg/kg)
Unit mg/kg implied. Number only.

Reference set, count: 3
[Q] Write down the reported ED50 of CC(C)C(=NOCCBr)C1(C(O)(Cn2cncn2)c2ccc(F)cc2F)CC1 (centres unmarked) [Example 44] , test system: Candida albicans strain IFM40009.
[A] 14.6

[Q] Write down the reported ED50 of CCC(=NOCc1ccncc1)C1(C(O)(Cn2cncn2)c2ccc(F)cc2F)CC1 (centres unmarked) [Example 59] , test system: Candida albicans strain IFM40009.
[A] 10.7

[Q] Write down the reported ED50 of CCCC(=NOCn1cncn1)C1(C(O)(Cn2cncn2)c2ccc(F)cc2F)CC1 (centres unmarked) [Example 46] , test system: Candida albicans strain IFM40009.
[A] 15.7

***
[Q] Write down the reported ED50 of CCC(=NOCSC)C1(C(O)(Cn2cncn2)c2ccc(F)cc2F)CC1 (centres unmarked) [Example 53] , test system: Candida albicans strain IFM40009.
[A] 13.5

[Q] Write down the reported ED50 of C#CCON=C(CC)C1(C(O)(Cn2cncn2)c2ccc(F)cc2F)CC1 (centres unmarked) [Example 51] , test system: Candida albicans strain IFM40009.
[A] 11.3

* * *

System: Aspergillus fumigatus strain IFM4942
Assay: Minimum Inhibitory Concentration (MIC), agar plate dilution method
Type: cell-based
Details: Aspergillus fumigatus, IFM4942, 48 h, Sabouraud's dextrose agar, 30°C for 2 days, visual growth, read-out: MIC
measured-quantity: MIC (µg/mL)
Unit µg/mL implied. Number only.

[Q] Write down the reported MIC of CC(C)C(=NOCC#N)C1(C(O)(Cn2cncn2)c2ccc(F)cc2F)CC1 (stereo not drawn) [Example 40] , test system: Aspergillus fumigatus strain IFM4942.
[A] 12.5

***
[Q] Write down the reported MIC of CON=C(C(C)C)C1(C(O)(Cn2cncn2)c2ccc(F)cc2F)CC1 (single isomer, unassigned; (-)) [Example 6] , test system: Aspergillus fumigatus strain IFM4942.
[A] 3.13

[Q] Write down the reported MIC of COCON=C(C1CC1)C1(C(O)(Cn2cncn2)c2ccc(F)cc2F)CC1 (stereo not drawn) [Example 15] , test system: Aspergillus fumigatus strain IFM4942.
[A] 12.5

[Q] Write down the reported MIC of CCCC(=NOC)C1(C(O)(Cn2cncn2)c2ccc(F)cc2F)CC1 (stereo not drawn) [Example 9] , test system: Aspergillus fumigatus strain IFM4942.
[A] 6.25

[Q] Write down the reported MIC of C#CCON=C(CC)C1(C(O)(Cn2cncn2)c2ccc(F)cc2F)CC1 (stereo not drawn) [Example 51] , test system: Aspergillus fumigatus strain IFM4942.
[A] 3.13

[Q] Write down the reported MIC of CON=C(C)C(C)(C)C(O)(Cn1cncn1)c1ccc(F)cc1F (stereo not drawn) [Example 21] , test system: Aspergillus fumigatus strain IFM4942.
[A] 3.13

[Q] Write down the reported MIC of CCC(=NOC)C(C)(C)C(O)(Cn1cncn1)c1ccc(F)cc1F (stereo not drawn) [Example 22] , test system: Aspergillus fumigatus strain IFM4942.
[A] 3.13

[Q] Write down the reported MIC of CCC(=NOCOC)C1(C(O)(Cn2cncn2)c2ccc(F)cc2F)CC1 (stereo not drawn) [Example 10] , test system: Aspergillus fumigatus strain IFM4942.
[A] 12.5

[Q] Write down the reported MIC of CC(C)C(=NOCCBr)C1(C(O)(Cn2cncn2)c2ccc(F)cc2F)CC1 (stereo not drawn) [Example 44] , test system: Aspergillus fumigatus strain IFM4942.
[A] 12.5
